Test system: H3N8 A/Miami/2/63
Condition Description: A/Miami/2/63, 48 h, 10 μM
Bridge positions count the residues as written; N and C are the ends. Square brackets hold non-standard residues; d marks the D form. Peptide text beside a SMILES is read from it.
Measured Property: % inhibition H3N8 (%)
Respond numerically; units are % and should not be typed.

Problem: Find the recorded % inhibition H3N8 belonging to CC[C@@H](C)[C@H]1NC(=O)[C@@H](Cc2ccccc2)NC(=O)[C@@H](CCSC)NC(=O)[C@@H](Cc2ccccc2)NC(=O)[C@@H](Cc2c[nH]c3ccccc23)NC(=O)[C@@H]([C@H](C)O)NC(=O)[C@H](NC(=O)[C@H](CCCCN)NC(=O)[C@H](CCCCN)NC(=O)[C@H](CCCNC(=N)N)NC(=O)[C@@H](N)CCCNC(=N)N)CSSC[C@H](C(=O)O)NC(=O)[C@@H](CC(N)=O)NC1=O [PSP IV A11, H-RRKKctwfmfinc-OH] (H-RRKK[dC][dT][dW][dF][dM][dF][dI][dN][dC]-OH; disulfide 5-13) and report it.
Result: 93

* * *

Measured % Inhibition by item
Test system: H1N1 A/PR/8/1934
Condition Description: A/PR/8/1934, 48 h, 1 μM
Bridge positions count the residues as written; N and C are the ends. Square brackets hold non-standard residues; d marks the D form. Peptide text beside a SMILES is read from it.
Just the number in %, nothing appended.

CC[C@@H](C)[C@H]1NC(=O)[C@@H](Cc2ccccc2)NC(=O)[C@@H]([C@H](C)O)NC(=O)[C@@H](Cc2ccccc2)NC(=O)[C@@H](Cc2c[nH]c3ccccc23)NC(=O)[C@@H](C(C)C)NC(=O)[C@H](NC(=O)[C@H](CCCCN)NC(=O)[C@H](CCCCN)NC(=O)[C@H](CCCNC(=N)N)NC(=O)[C@@H](N)CCCNC(=N)N)CSSC[C@H](C(=O)O)NC(=O)[C@@H](CC(N)=O)NC1=O [PSP V A18, H-RRKKcvwftfinc-OH] (H-RRKK[dC][dV][dW][dF][dT][dF][dI][dN][dC]-OH; disulfide 5-13): 81

Attention now shifts to the item below.
Problem: I have this molecule here, CC[C@@H](C)[C@H]1NC(=O)[C@@H](Cc2ccccc2)NC(=O)[C@@H]([C@H](C)O)NC(=O)[C@@H](Cc2ccccc2)NC(=O)[C@@H](Cc2c[nH]c3ccccc23)NC(=O)[C@@H](Cc2c[nH]c3ccccc23)NC(=O)[C@H](NC(=O)[C@H](CCCCN)NC(=O)[C@H](CCCCN)NC(=O)[C@H](CCCNC(=N)N)NC(=O)[C@@H](N)CCCNC(=N)N)CSSC[C@H](C(=O)O)NC(=O)[C@@H]([C@H](C)O)NC1=O [PSP VI A17, H-RRKKcwwftfitc-OH] (H-RRKK[dC][dW][dW][dF][dT][dF][dI][dT][dC]-OH; disulfide 5-13) , and I need its recorded % Inhibition.
Result: 27

* * *

Readings of % Inhibition for the listed compounds
System: H1N1 A/PR/8/1934
Condition Description: A/PR/8/1934, 48 h, 1 μM
Bridge positions count the residues as written; N and C are the ends. Square brackets hold non-standard residues; d marks the D form. Peptide text beside a SMILES is read from it.
Just the number in %, nothing appended.

CC[C@@H](C)[C@H]1NC(=O)[C@@H](Cc2ccccc2)NC(=O)[C@@H]([C@H](C)O)NC(=O)[C@@H](Cc2ccccc2)NC(=O)[C@@H](Cc2c[nH]c3ccccc23)NC(=O)[C@@H](Cc2c[nH]cn2)NC(=O)[C@H](NC(=O)[C@H](CCCCN)NC(=O)[C@H](CCCCN)NC(=O)[C@H](CCCNC(=N)N)NC(=O)[C@@H](N)CCCNC(=N)N)CSSC[C@H](C(=O)O)NC(=O)[C@@H](CC(N)=O)NC1=O [PSP V A7, H-RRKKchwitfinc-OH] (H-RRKK[dC][dH][dW][dF][dT][dF][dI][dN][dC]-OH; disulfide 5-13): 67

// switching to the query compound
Problem: # lookup: % Inhibition of CC[C@@H](C)[C@H]1NC(=O)[C@@H](Cc2ccccc2)NC(=O)[C@@H]([C@H](C)O)NC(=O)[C@@H](Cc2ccccc2)NC(=O)[C@@H](Cc2c[nH]c3ccccc23)NC(=O)[C@@H](Cc2c[nH]c3ccccc23)NC(=O)[C@H](NC(=O)[C@H](CCCCN)NC(=O)[C@H](CCCCN)NC(=O)[C@H](CCCNC(=N)N)NC(=O)[C@@H](N)CCCNC(=N)N)CSSC[C@H](C(=O)O)NC(=O)[C@@H](Cc2c[nH]cn2)NC1=O [PSP VI A7, H-RRKKcwwftfihc-OH] (H-RRKK[dC][dW][dW][dF][dT][dF][dI][dH][dC]-OH; disulfide 5-13)
Result: 38.5
